# Measured Target: Programmed cell death protein 1/Programmed cell death 1 ligand 1 (Homo sapiens)
# Sequence (Q15116 whole entry): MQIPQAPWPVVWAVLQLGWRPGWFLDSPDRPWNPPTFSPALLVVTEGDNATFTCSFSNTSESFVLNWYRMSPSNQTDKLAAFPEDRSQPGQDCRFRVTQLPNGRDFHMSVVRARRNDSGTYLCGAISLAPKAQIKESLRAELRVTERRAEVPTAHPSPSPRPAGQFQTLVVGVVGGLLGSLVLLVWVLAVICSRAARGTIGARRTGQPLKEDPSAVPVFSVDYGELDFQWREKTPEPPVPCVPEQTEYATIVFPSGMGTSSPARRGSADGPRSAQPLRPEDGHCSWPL
# Sequence (Q9NZQ7 whole entry): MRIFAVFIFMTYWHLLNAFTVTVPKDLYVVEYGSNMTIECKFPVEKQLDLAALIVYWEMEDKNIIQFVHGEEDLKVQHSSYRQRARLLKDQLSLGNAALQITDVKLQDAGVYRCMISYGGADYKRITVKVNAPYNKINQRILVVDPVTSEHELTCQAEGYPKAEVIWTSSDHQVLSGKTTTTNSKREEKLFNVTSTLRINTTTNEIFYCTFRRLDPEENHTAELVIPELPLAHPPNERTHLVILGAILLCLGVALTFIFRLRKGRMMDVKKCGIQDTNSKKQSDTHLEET
# Run Description: Inhibition of PD-1/PD-L1 (unknown origin) protein-protein interaction by HTRF assay
Observed Property: pIC50
Formally, pIC50 is defined as -log10 of the concentration c, with c in mol/L.

Examples with answers:
>>> number("COc1nc(-c2cccc(-c3ccccc3)c2C)ccc1CNc1ccc(C(=O)NO)s1")
7.00
>>> number("COc1nc(-c2cccc(-c3ccccc3)c2C)ccc1CNCCCCC(=O)Nc1ccccc1N")
7.00
>>> number("COc1nc(OCc2cccc(-c3ccccc3)c2C)ccc1CNCCCCCC(=O)Nc1ccccc1N")
7.02
>>> number("COc1nc(OCc2cccc(-c3ccccc3)c2C)ccc1CNc1cc(C(=O)NO)c[nH]1")
7.06
>>> number("CCC[C@@H](NCc1ccc(OCc2cccc(-c3ccccc3)c2C)nc1OC)C(=O)Nc1ccccc1N")
7.01

Which pIC50 value is on record for `COc1nc(OCc2cccc(-c3ccccc3)c2C)ccc1CNc1cccc(C(=O)NO)c1` ?
7.00

Any idea what pIC50 was measured for `COc1nc(-c2cccc(-c3ccccc3)c2C)ccc1CNCC(=O)NO` ?
7.79

For the compound shown here, `COc1nc(OCc2cccc(-c3ccccc3)c2C)ccc1CNc1ccc(CC(=O)NO)cc1` , give the reported pIC50.
7.00

Quick one: pIC50 of `COc1nc(-c2cccc(-c3ccccc3)c2C)ccc1CN1CCN(C(=O)NO)CC1` ?
7.00

What does the data say about its pIC50? Entry: `COc1nc(-c2cccc(-c3ccccc3)c2C)ccc1CN1CCC(C(=O)Nc2ccccc2N)CC1`
7.00

Give the measured pIC50 of `COc1nc(-c2cccc(-c3ccccc3)c2C)ccc1CNc1cc(C(=O)NO)c[nH]1` .
7.00

// pIC50 lookup, key: `COc1nc(-c2cccc(-c3ccccc3)c2C)ccc1Cn1ccc(C(=O)Nc2ccccc2N)c1`
7.07

----------
# Tested on: B16-F10
# Run Description: cells
# Condition Parameters: Mus musculus, B16-F10, 48 h
Observed Property: IC50

Example entries begin here.
>>> result("COc1nc(-c2cccc(-c3ccccc3)c2C)ccc1CNCCCCC(=O)NO")
"> 10 µM"
>>> result("COc1nc(-c2cccc(-c3ccccc3)c2C)ccc1CNCCCCCC(=O)NO")
"> 10 µM"
>>> result("COc1nc(OCc2cccc(-c3ccccc3)c2C)ccc1CNCCCCCCC(=O)NO")
"> 10 µM"
>>> result("COc1nc(-c2cccc(-c3ccccc3)c2C)ccc1CNCCCCCCC(=O)NO")
"8.1 µM"
>>> result("O=C(CCCCCCNC(=O)c1cnc(N(c2ccccc2)c2ccccc2)nc1)NO [RICOLINOSTAT]")
"> 10 µM"

Identify the measured IC50 of `COc1nc(-c2cccc(-c3ccccc3)c2C)ccc1CNCC(=O)NO` for B16-F10.
8.5 µM

Give IC50 (B16-F10) of the following molecule: `COc1nc(-c2cccc(-c3ccccc3)c2C)ccc1CNCCCC(=O)Nc1ccccc1N`
9.82 µM

Lab request: please report IC50 under test system B16-F10 for `COc1nc(OCc2cccc(-c3ccccc3)c2C)ccc1CNCCCCC(=O)NO`
> 10 µM

----------
# Run Description: Tmax in male Sprague-Dawley rat at 10 mg/kg, po measured after 48 hrs by triple quadrupole mass spectrometric analysis
# Assay type: ADME, organism-based
# Condition Parameters: in vivo
Observed Property: Tmax (h)
Express the result in h but write the number alone.

Any idea what its Tmax is? The compound is `COc1nc(-c2cccc(-c3ccccc3)c2C)ccc1CNCCCCCCC(=O)NO`
5.55
